experiment: Neurotoxicity in ip dosed CF1 mouse after 0.25 hrs by rotarod test; type: toxicity, organism-based; settings: in vivo
Measurement label: TD50 at 0.25 h (mg/kg)
Answers are plain numbers, in mg/kg.

Exam item: What measured TD50 at 0.25 h goes with CC(C)CC(=O)OC(Cn1ccnc1)c1ccc2ccccc2c1 (stereo unspecified) ?
Marked response: 124

Data provenance: ChEMBL document CHEMBL1156239
